Could you please report measured M65V, crude extract, rate of cleavage for the items listed next?
experimental system: E. coli PNP mutant M65V (Escherichia coli, UniProt P0ABP8, M65V)
Sequence (P0ABP8 whole entry M65V): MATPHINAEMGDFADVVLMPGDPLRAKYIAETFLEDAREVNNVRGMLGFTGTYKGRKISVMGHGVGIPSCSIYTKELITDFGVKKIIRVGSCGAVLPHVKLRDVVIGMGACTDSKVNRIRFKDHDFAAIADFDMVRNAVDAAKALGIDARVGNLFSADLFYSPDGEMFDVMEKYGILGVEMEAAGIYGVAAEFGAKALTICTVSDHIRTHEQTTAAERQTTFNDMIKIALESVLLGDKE
stated conditions: Table III; crude extract; 100 μM substrate; HPLC; average of separate experiments
Answers are plain numbers, in nmol/mg/h.

Worked examples follow.
- smiles code: "Cc1ncnc2c1ncn2[C@@H]1O[C@@H](CI)[C@@H](O)[C@H]1O"
  quantity unit: "nmol/mg/h"
  M65V, crude extract, rate of cleavage: 4
- smiles code: "Nc1nc(F)nc2c1ncn2[C@@H]1O[C@H](CO)[C@@H](O)[C@@H]1O"
  quantity unit: "nmol/mg/h"
  M65V, crude extract, rate of cleavage: 904
- smiles code: "Cc1ncnc2c1ncn2[C@@H]1O[C@H]([C@@H](C)O)[C@@H](O)[C@H]1O"
  quantity unit: "nmol/mg/h"
  M65V, crude extract, rate of cleavage: 316

Proceeding to the next compound to report its M65V, crude extract, rate of cleavage.
Request: Reported M65V, crude extract, rate of cleavage, compound NC[C@H]1O[C@@H](n2cnc3c(N)ncnc32)[C@H](O)[C@@H]1O : ____
Result: 930
